Taken from patent US5126326A.

TARGET UNDER TEST: UniProtKB P03366
pIC50: −log10 of the molar value. *1 amine or outer side, *2 acyl side, *3 side chain or, on linkers, in order; H or OH if unused. Where a SMILES comes first, the peptide text is derived from it. [ ]: non-standard residue; d: D form. The star is where a group is joined. ACHPA = O=C(C[C@H](O)[C@H](CC1CCCCC1)N[*:1])[*:2]; Carboxymethyl = O=C(O)C*; X1 = O=C(C*)OCc1ccccc1; Boc = CC(C)(C)OC(=O)*
Mark Met for reported pIC50 of 8 or greater; mark Not met for anything smaller.

Req: I'd appreciate it if you could say whether CC(C)C[C@H](NC(=O)C[C@H](O)[C@H](CC1CCCCC1)NC(=O)[C@H](Cc1ccccc1)NC(=O)[C@H](Cc1ccc(OCC(=O)O)cc1)NC(=O)OC(C)(C)C)C(=O)N[C@@H](Cc1ccccc1)C(N)=O [Example 5, Boc-Tyr(O-AcOH)-Phe-ACHPA-Leu-Phe-NH2] (Boc-Y(Carboxymethyl)F[ACHPA]LF-NH2) has pIC50 at least equal to 8.
Resp: Not met

Req: Next compound up: CC(C)C[C@H](NC(=O)C[C@H](O)[C@H](CC1CCCCC1)NC(=O)[C@@H](NC(=O)[C@@H](N)Cc1ccc(OCC(=O)OCc2ccccc2)cc1)C(C)C)C(=O)N[C@@H](Cc1ccccc1)C(N)=O [Example 2] (H-Y(X1)V[ACHPA]LF-NH2)
Resp: Met

Req: Next compound up: "CC(C)C[C@H](NC(=O)C[C@H](O)[C@H](CC1CCCCC1)NC(=O)[C@@H](NC(=O)[C@H](Cc1ccc(OCC(=O)OCc2ccccc2)cc1)NC(=O)OC(C)(C)C)C(C)C)C(=O)N[C@@H](Cc1ccccc1)C(N)=O"
Resp: Not met

Req: Next compound up: CC(C)C[C@H](NC(=O)C[C@H](O)[C@H](CC1CCCCC1)NC(=O)[C@@H](NC(=O)[C@H](Cc1ccc(OCC(=O)O)cc1)NC(=O)OC(C)(C)C)C(C)C)C(=O)N[C@@H](Cc1ccccc1)C(N)=O [Example 3, Boc-Tyr(O-AcOH)-Val-ACHPA-Leu-Phe-NH2] (Boc-Y(Carboxymethyl)V[ACHPA]LF-NH2)
Resp: Not met
